test: Acute toxicity (LD50), oral, mice; settings: mouse, in vivo
readout-name: LD50

Prompt: Return reported LD50; argument: O=C(CCCN1CCN(c2ccc(F)cc2)CC1)NC1c2ccccc2CSc2ccccc21 (stereo not shown) [maleate of Compound A]
Response: > 500 mg/kg
